compounds and their reported concentration at 2 h
# run-description: Total plasma concentration in nude mouse allografted with mouse Ba/F3 cells expressing JAK2 TEL domain at 5 mg/kg, po qd measured at 2 hrs
# Format: ADME, organism-based, BaF3
# Parameters: dose 5 mg/kg, route oral

# query-smiles, concentration at 2 h [ng/mL]
rows = [
    ("Cc1cc(Nc2nc(O[C@@H](C)c3ncc(F)cn3)c(F)c(N3CCOCC3)n2)n[nH]1", 325),
    ("Cc1cc(Nc2nc(N[C@@H](C)c3ncc(F)cc3F)c(F)c(N3CCOCC3)n2)n[nH]1", 228),
]

---

# run-description: Clearance in beagle dog at 5 mg/kg, po and […] mg/kg, iv
# Format: ADME, organism-based, Canis lupus familiaris
# setup-conditions: in vivo, 2.5 mg/kg
result-type: clearance (mL/min/kg)

# query-smiles, measurement-unit, reported
rows = [
    ("Cc1cc(Nc2nc(O[C@@H](C)c3ncc(F)cn3)c(F)c(N3CCOCC3)n2)n[nH]1", "mL/min/kg", 13),
    ("Cc1cc(Nc2nc(N[C@@H](C)c3ncc(F)cc3F)c(F)c(N3CCOCC3)n2)n[nH]1", "mL/min/kg", 14),
]

---

molecules and their reported log10(GI50)
# run-description: Growth inhibition of mouse BA/F3 cells transfected with JAK2 TEL domain after 24 hrs by Alamar Blue assay
# Assay type: functional
# setup-conditions: BaF3, 24 h
result-type: log10(GI50) (log10 of the value in nM)

# query-smiles, result-type, reported
rows = [
    ("Cc1cc(Nc2nc(N[C@@H](C)c3ncc(F)cc3F)c(F)c(N3CCOCC3)n2)n[nH]1", "log10(GI50)", 0.90),
    ("Cc1cc(Nc2nc(N[C@@H](C)c3ncc(F)cn3)cc(N3CCOCC3)n2)n[nH]1", "log10(GI50)", 1.76),
    ("COc1cc(Nc2nc(N[C@@H](C)c3ncc(F)cn3)c(F)c(N3CCOCC3)n2)n[nH]1", "log10(GI50)", 2.20),
    ("Cc1cnc(Nc2nc(N[C@@H](C)c3ncc(F)cn3)c(F)c(N3CCOCC3)n2)s1", "log10(GI50)", 1.48),
    ("Cc1cc(Nc2nc(N[C@@H](C)c3ncc(F)cn3)c(F)c(N3CCOCC3)n2)n[nH]1", "log10(GI50)", 1.18),
    ("Cc1cc(Nc2nc(O[C@@H](C)c3ncc(F)cc3F)c(F)c(N3CCOCC3)n2)n[nH]1", "log10(GI50)", 1.00),
    ("Cc1cc(Nc2nc(O[C@@H](C)c3ccc(F)cn3)c(F)c(N3CCOCC3)n2)n[nH]1", "log10(GI50)", 1.20),
    ("Cc1cc(Nc2nc(N[C@@H](C)c3ccc(F)cn3)c(F)c(N3CCOCC3)n2)n[nH]1", "log10(GI50)", 1.28),
    ("Cc1cc(Nc2nc(O[C@@H](C)c3ncc(F)cn3)c(F)c(N3CCOCC3)n2)n[nH]1", "log10(GI50)", 0.78),
    ("Cc1cnc(Nc2nc(N[C@@H](C)c3ncc(F)cn3)nc(N3CCOCC3)c2F)s1", "log10(GI50)", 1.48),
]

---

# Tested on: Hepatocyte
# run-description: Metabolic stability in human hepatocytes measured per 10^6 cells
# Format: ADME, cell-based
result-type: Stability (µL/min/1e6 cells)

# query-smiles, result-type, operator, reported
rows = [
    ("Cc1cc(Nc2nc(N[C@@H](C)c3ncc(F)cc3F)c(F)c(N3CCOCC3)n2)n[nH]1", "Stability", "=", 5.2),
    ("Cc1cc(Nc2nc(O[C@@H](C)c3ncc(F)cn3)c(F)c(N3CCOCC3)n2)n[nH]1", "Stability", "<", 2),
]

The measurements presented in this section are drawn from ChEMBL document CHEMBL2380256.
